assay-target: SCD1 (Mus musculus, UniProt P13516)
Sequence (P13516 1-355): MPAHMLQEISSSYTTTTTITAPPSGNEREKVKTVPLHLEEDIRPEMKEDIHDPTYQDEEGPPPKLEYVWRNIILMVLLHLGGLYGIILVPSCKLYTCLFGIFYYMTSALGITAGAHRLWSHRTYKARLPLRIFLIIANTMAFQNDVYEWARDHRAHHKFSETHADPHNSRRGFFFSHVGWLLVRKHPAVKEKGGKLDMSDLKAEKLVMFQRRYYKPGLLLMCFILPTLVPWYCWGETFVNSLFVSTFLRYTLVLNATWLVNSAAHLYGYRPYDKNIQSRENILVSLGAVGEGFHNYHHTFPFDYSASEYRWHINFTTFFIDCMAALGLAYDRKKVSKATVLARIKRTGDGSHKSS
pIC50: −log10 of the molar value.
I'd appreciate it if you could supply pIC50 values for the items below.

[
  {
    "smiles-representation": "O=c1cc(N2CCN(Cc3cc(F)ccc3O)CC2)nc[nH]1",
    "pIC50": "≥ 6.00"
  },
  {
    "smiles-representation": "O=c1cc(N2CCN(Cc3cc(C(F)(F)F)ccc3Cl)CC2)nc[nH]1",
    "pIC50": "≤ 5.96"
  },
  {
    "smiles-representation": "O=c1cc(N2CCN(Cc3cc(F)ccc3Br)CC2)nc[nH]1",
    "pIC50": "≥ 6.00"
  },
  {
    "smiles-representation": "O=c1cc(N2CCN(Cc3ccc(F)cc3Cl)CC2)nc[nH]1",
    "pIC50": "≤ 5.96"
  },
  {
    "smiles-representation": "COc1cc(I)cc(CN2CCN(c3cc(=O)[nH]cn3)CC2)c1O",
    "pIC50": "≥ 6.00"
  },
  {
    "smiles-representation": "Cc1ccc(O)c(CN2CCN(c3cc(=O)[nH]cn3)CC2)c1",
    "pIC50": "≥ 6.00"
  },
  {
    "smiles-representation": "O=c1cc(N2CCN(Cc3ccccc3Br)CC2)nc[nH]1",
    "pIC50": "≥ 6.00"
  },
  {
    "smiles-representation": "Cc1cc(Cl)cc(CN2CCN(c3cc(=O)[nH]cn3)CC2)c1O",
    "pIC50": "≥ 6.00"
  }
]

Please look at this compound and report its pIC50: `O=c1cc(N2CCN(Cc3ccc(F)c(F)c3)CC2)nc[nH]1` ≥ 6.00
